Measured HDAC3 activity raw data (signal) values are reported for all entries that follow.
system.name: HDAC3 (Homo sapiens)
Construct: purchased Reaction Biology Corporation (assay run by the CRO)
Sequence (O15379 whole entry): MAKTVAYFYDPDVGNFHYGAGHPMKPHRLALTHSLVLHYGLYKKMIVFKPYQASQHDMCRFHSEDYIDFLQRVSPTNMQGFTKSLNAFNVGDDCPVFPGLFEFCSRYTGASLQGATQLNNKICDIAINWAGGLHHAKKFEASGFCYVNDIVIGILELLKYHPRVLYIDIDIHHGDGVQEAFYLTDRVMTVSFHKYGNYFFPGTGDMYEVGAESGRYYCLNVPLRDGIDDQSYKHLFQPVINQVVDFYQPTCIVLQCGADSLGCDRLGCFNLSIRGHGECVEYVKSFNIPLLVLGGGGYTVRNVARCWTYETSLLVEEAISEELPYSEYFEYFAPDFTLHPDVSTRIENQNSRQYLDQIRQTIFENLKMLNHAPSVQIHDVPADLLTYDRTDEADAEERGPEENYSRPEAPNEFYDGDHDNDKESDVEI
Sequence (Q9Y618 395-489 partner limits assumed): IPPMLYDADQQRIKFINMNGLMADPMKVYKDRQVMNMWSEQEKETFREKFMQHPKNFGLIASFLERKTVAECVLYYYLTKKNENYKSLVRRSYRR
experiment.summary: HDAC3 inhibition, full IC50 measurement (Reaction Biology; fluorogenic p53 peptide RHKK(Ac)AMC)
Type: biochemical
test.context: Conc. 4.12E-08 M, t2
Peptide text beside a SMILES is read from it.
assay.metric: HDAC3 activity raw data (signal)

compound | assay.metric | reported
C[C@H](O)[C@H]1NC(=O)[C@H](Cc2c[nH]c3ccccc23)NC(=O)[C@H](CCCCCS)NC(=O)[C@H](CCCCN)NC(=O)[C@@H](CC(=O)O)NC(=O)[C@@H](CCCCN)NC(=O)[C@@H](CO)NC(=O)[C@H](CC(N)=O)NC(=O)[C@H](CC(=O)O)NC1=O [des2.1.0, SHA-Trp-dThr-Asp-Asn-dSer-dLys-dAsp-Lys] (HELM PEPTIDE1{D.N.[dS].[dK].[dD].K.[O=C([C@H](CCCCCS)N[*:1])[*:2]].W.[dT]}$PEPTIDE1,PEPTIDE1,1:R1-9:R2$$$V2.0) | HDAC3 activity raw data (signal) | 801621
N=C(N)NCCC[C@@H]1NC(=O)[C@@H](CCCNC(=N)N)NC(=O)[C@H]2CCCN2C(=O)[C@@H](Cc2c[nH]cn2)NC(=O)[C@H](Cc2ccc(O)cc2)NC(=O)[C@H](CCCCCS)NC(=O)[C@H](CCc2ccccc2)NC(=O)[C@@H](CO)NC(=O)[C@H](CC(=O)O)NC1=O [des3.3.1, SHA-Tyr-dHis-dPro-dArg-Arg-Asp-dSer-C27] (HELM PEPTIDE1{[O=C([C@H](CCCCCS)N[*:1])[*:2]].Y.[dH].[dP].[dR].R.D.[dS].[O=C([C@H](CCc1ccccc1)N[*:1])[*:2]]}$PEPTIDE1,PEPTIDE1,1:R1-9:R2$$$V2.0) | HDAC3 activity raw data (signal) | 74103

----------
system.name: HDAC6 (Homo sapiens)
Construct: purchased Reaction Biology Corporation (assay run by the CRO)
experiment.summary: HDAC6 inhibition, full IC50 measurement (Reaction Biology; fluorogenic p53 peptide RHKK(Ac)AMC)
Format: biochemical
test.context: Conc. 4.57E-09 M, t1
Peptide text beside a SMILES is read from it.
Measured HDAC6 activity raw data (signal) values are reported for all entries that follow.

compound | HDAC6 activity raw data (signal)
CC(C)[C@@H]1NC(=O)[C@H](CCCNC(=N)N)NC(=O)[C@@H](CC(=O)O)NC(=O)[C@H](CO)NC(=O)[C@@H](CO)NC(=O)[C@@H](CCC(=O)O)NC(=O)[C@H](Cc2ccc(O)cc2)NC(=O)[C@H](CCCCCS)NC1=O [des4.2.0, SHA-Tyr-dGlu-dSer-Ser-dAsp-Arg-Val] (HELM PEPTIDE1{R.V.[O=C([C@H](CCCCCS)N[*:1])[*:2]].Y.[dE].[dS].S.[dD]}$PEPTIDE1,PEPTIDE1,1:R1-8:R2$$$V2.0) | 1111578
CCCC[C@H]1NC(=O)[C@H](CC(=O)O)NC(=O)[C@@H](CO)NC(=O)[C@@H](C)NC(=O)[C@H](CCCCN)NC(=O)[C@@H](CCCCN)NC(=O)[C@H](Cc2ccccc2)NC(=O)[C@H](CCCCCS)NC1=O [des4.3.1.2, SHA-Phe-dLys-Lys-dAla-dSer-Asp-dNle] (HELM PEPTIDE1{D.[CCCC[C@@H](N[*:1])C(=O)[*:2]].[O=C([C@H](CCCCCS)N[*:1])[*:2]].F.[dK].K.[dA].[dS]}$PEPTIDE1,PEPTIDE1,1:R1-8:R2$$$V2.0) | 1710532
CC(C)C[C@H]1NC(=O)[C@H](Cc2c[nH]c3ccccc23)NC(=O)[C@H](CCCCCS)NC(=O)[C@@H](Cc2ccc(O)cc2)NC(=O)[C@@H](C(C)C)NC(=O)[C@H](Cc2c[nH]cn2)NC(=O)CNC(=O)CNC(=O)[C@@H](CO)NC1=O [des2.2.0, SHA-Trp-dLeu-dSer-Gly-Gly-His-dVal-dTyr] (HELM PEPTIDE1{G.G.H.[dV].[dY].[O=C([C@H](CCCCCS)N[*:1])[*:2]].W.[dL].[dS]}$PEPTIDE1,PEPTIDE1,1:R1-9:R2$$$V2.0) | 138901

----------
system.name: HDAC2 (Homo sapiens)
Construct: purchased Reaction Biology Corporation (assay run by the CRO)
Sequence (Q92769 whole entry): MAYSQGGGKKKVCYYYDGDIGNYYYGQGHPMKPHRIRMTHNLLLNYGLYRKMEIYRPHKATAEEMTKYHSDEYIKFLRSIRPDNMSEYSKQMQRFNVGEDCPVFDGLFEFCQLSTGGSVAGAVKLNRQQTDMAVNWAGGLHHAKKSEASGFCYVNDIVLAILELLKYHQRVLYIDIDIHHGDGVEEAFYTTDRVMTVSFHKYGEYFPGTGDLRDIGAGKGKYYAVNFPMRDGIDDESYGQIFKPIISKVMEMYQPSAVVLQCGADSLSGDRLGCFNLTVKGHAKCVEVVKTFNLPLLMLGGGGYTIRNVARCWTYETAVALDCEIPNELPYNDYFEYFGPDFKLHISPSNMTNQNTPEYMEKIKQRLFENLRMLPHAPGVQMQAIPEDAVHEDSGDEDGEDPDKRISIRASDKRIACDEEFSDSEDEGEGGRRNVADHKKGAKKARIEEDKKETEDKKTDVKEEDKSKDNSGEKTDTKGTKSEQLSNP
experiment.summary: HDAC2 inhibition, full IC50 measurement (Reaction Biology; fluorogenic p53 peptide RHKK(Ac)AMC)
Type: biochemical
test.context: Conc. 1.11E-06 M, t1
Peptide text beside a SMILES is read from it.
Measured HDAC2 activity raw data (signal) values are reported for all entries that follow.

compound | system.name | HDAC2 activity raw data (signal)
CC(C)[C@@H]1NC(=O)[C@H](CCCNC(=N)N)NC(=O)[C@@H](CC(=O)O)NC(=O)[C@H](CO)NC(=O)[C@@H](CO)NC(=O)[C@@H](CCC(=O)O)NC(=O)[C@H](Cc2ccc(O)cc2)NC(=O)[C@H](CCCCCS)NC1=O [des4.2.0, SHA-Tyr-dGlu-dSer-Ser-dAsp-Arg-Val] (HELM PEPTIDE1{R.V.[O=C([C@H](CCCCCS)N[*:1])[*:2]].Y.[dE].[dS].S.[dD]}$PEPTIDE1,PEPTIDE1,1:R1-8:R2$$$V2.0) | HDAC2 (Homo sapiens) | 480221
CCCC[C@H]1NC(=O)[C@H](CC(=O)O)NC(=O)[C@@H](CO)NC(=O)[C@@H](C)NC(=O)[C@H](CCCCN)NC(=O)[C@@H](CCCCN)NC(=O)[C@H](Cc2ccccc2)NC(=O)[C@H](CCCCCS)NC1=O [des4.3.1.2, SHA-Phe-dLys-Lys-dAla-dSer-Asp-dNle] (HELM PEPTIDE1{D.[CCCC[C@@H](N[*:1])C(=O)[*:2]].[O=C([C@H](CCCCCS)N[*:1])[*:2]].F.[dK].K.[dA].[dS]}$PEPTIDE1,PEPTIDE1,1:R1-8:R2$$$V2.0) | HDAC2 (Homo sapiens) | 1654730
CCCC[C@H]1NC(=O)[C@H](Cc2ccccc2)NC(=O)[C@H](CCCCCS)NC(=O)[C@@H](CCCNC(=N)N)NC(=O)[C@H](C)NC(=O)[C@@H](CO)NC(=O)[C@@H](C)NC(=O)[C@H](CCCCN)NC1=O [des4.3.1.3, SHA-Phe-dNle-Lys-dAla-dSer-Ala-dArg] (HELM PEPTIDE1{A.[dR].[O=C([C@H](CCCCCS)N[*:1])[*:2]].F.[CCCC[C@@H](N[*:1])C(=O)[*:2]].K.[dA].[dS]}$PEPTIDE1,PEPTIDE1,1:R1-8:R2$$$V2.0) | HDAC2 (Homo sapiens) | 922315

----------
Measured HDAC6 activity raw data (signal) values are reported for all entries that follow.
system.name: HDAC6 (Homo sapiens, UniProt Q9UBN7)
Construct: purchased Reaction Biology Corporation (assay run by the CRO)
Sequence (Q9UBN7 whole entry): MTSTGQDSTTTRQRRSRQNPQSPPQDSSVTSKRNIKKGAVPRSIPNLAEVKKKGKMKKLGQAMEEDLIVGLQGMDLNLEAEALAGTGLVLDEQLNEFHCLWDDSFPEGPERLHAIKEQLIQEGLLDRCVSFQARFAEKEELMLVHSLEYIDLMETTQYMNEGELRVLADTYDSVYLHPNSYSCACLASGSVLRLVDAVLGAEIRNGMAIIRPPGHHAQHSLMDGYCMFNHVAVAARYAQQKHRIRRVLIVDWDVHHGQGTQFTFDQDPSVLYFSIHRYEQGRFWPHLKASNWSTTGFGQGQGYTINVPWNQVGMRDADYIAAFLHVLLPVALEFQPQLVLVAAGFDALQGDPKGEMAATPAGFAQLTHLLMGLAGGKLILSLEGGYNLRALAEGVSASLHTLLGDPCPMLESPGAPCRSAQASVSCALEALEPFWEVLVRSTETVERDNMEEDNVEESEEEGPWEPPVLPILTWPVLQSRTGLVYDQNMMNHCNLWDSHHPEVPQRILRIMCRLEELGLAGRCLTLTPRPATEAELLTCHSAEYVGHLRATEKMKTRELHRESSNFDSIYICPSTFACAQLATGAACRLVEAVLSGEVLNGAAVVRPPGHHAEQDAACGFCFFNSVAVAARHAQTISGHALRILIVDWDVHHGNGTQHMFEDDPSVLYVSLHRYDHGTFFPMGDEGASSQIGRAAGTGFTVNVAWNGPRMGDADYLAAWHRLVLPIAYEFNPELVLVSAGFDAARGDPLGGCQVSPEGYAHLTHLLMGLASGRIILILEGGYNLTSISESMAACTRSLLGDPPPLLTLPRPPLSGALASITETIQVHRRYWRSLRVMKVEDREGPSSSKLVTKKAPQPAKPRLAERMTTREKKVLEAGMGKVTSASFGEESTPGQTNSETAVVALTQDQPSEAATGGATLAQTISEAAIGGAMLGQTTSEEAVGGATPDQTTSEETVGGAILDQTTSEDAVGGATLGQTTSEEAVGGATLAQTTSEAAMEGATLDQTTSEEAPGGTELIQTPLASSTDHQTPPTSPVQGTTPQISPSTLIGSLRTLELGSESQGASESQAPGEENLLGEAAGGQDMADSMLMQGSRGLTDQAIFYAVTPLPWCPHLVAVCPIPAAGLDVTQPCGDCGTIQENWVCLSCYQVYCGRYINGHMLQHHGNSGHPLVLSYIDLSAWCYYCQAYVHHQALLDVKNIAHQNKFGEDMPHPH
experiment.summary: HDAC6 inhibition, full IC50 measurement (Reaction Biology; fluorogenic p53 peptide RHKK(Ac)AMC)
Format: biochemical
test.context: Conc. 1.52E-09 M, t1
Peptide text beside a SMILES is read from it.
assay.metric: HDAC6 activity raw data (signal)

molecule | assay.metric | reported
CC(C)[C@@H]1NC(=O)[C@H](CCCNC(=N)N)NC(=O)[C@@H](CC(=O)O)NC(=O)[C@H](CO)NC(=O)[C@@H](CO)NC(=O)[C@@H](CCC(=O)O)NC(=O)[C@H](Cc2ccc(O)cc2)NC(=O)[C@H](CCCCCS)NC1=O [des4.2.0, SHA-Tyr-dGlu-dSer-Ser-dAsp-Arg-Val] (HELM PEPTIDE1{R.V.[O=C([C@H](CCCCCS)N[*:1])[*:2]].Y.[dE].[dS].S.[dD]}$PEPTIDE1,PEPTIDE1,1:R1-8:R2$$$V2.0) | HDAC6 activity raw data (signal) | 1558048
CSCC[C@H]1NC(=O)[C@@H](CO)NC(=O)[C@H](CC(N)=O)NC(=O)[C@H](CC(=O)O)NC(=O)[C@@H]([C@H](C)O)NC(=O)[C@H](Cc2c[nH]c3ccccc23)NC(=O)[C@H](CCCCCS)NC(=O)[C@H](CCCCN)NC(=O)[C@@H](CC(=O)O)NC1=O [des2.1.1, SHA-Trp-dThr-Asp-Asn-dSer-dMet-dAsp-Lys] (HELM PEPTIDE1{D.N.[dS].[dM].[dD].K.[O=C([C@H](CCCCCS)N[*:1])[*:2]].W.[dT]}$PEPTIDE1,PEPTIDE1,1:R1-9:R2$$$V2.0) | HDAC6 activity raw data (signal) | 455139
NCCCC[C@H]1NC(=O)[C@H](CCC(N)=O)NC(=O)[C@H](CCC(=O)O)NC(=O)[C@@H]2CCCN2C(=O)[C@H](CC(N)=O)NC(=O)[C@H](CCCCCS)NC(=O)CNC(=O)[C@H](Cc2c[nH]c3ccccc23)NC1=O [des1.1.1, SHA-Asn-Pro-Glu-Gln-dLys-Trp-Gly] (HELM PEPTIDE1{E.Q.[dK].W.G.[O=C([C@H](CCCCCS)N[*:1])[*:2]].N.P}$PEPTIDE1,PEPTIDE1,1:R1-8:R2$$$V2.0) | HDAC6 activity raw data (signal) | 513045
CC(C)C[C@H]1NC(=O)[C@H](Cc2c[nH]c3ccccc23)NC(=O)[C@H](CCCCCS)NC(=O)[C@@H](Cc2ccc(O)cc2)NC(=O)[C@@H](C(C)C)NC(=O)[C@H](Cc2c[nH]cn2)NC(=O)CNC(=O)CNC(=O)[C@@H](CO)NC1=O [des2.2.0, SHA-Trp-dLeu-dSer-Gly-Gly-His-dVal-dTyr] (HELM PEPTIDE1{G.G.H.[dV].[dY].[O=C([C@H](CCCCCS)N[*:1])[*:2]].W.[dL].[dS]}$PEPTIDE1,PEPTIDE1,1:R1-9:R2$$$V2.0) | HDAC6 activity raw data (signal) | 132716
N=C(N)NCCC[C@@H]1NC(=O)[C@H](Cc2c[nH]c3ccccc23)NC(=O)[C@H](CC(=O)O)NC(=O)[C@@H](CO)NC(=O)[C@H](Cc2c[nH]c3ccccc23)NC(=O)[C@H](CCCCCS)NC(=O)[C@H](CCC(N)=O)NC1=O [des4.1.0, SHA-Trp-dSer-Asp-Trp-Arg-Gln] (HELM PEPTIDE1{D.W.R.Q.[O=C([C@H](CCCCCS)N[*:1])[*:2]].W.[dS]}$PEPTIDE1,PEPTIDE1,1:R1-7:R2$$$V2.0) | HDAC6 activity raw data (signal) | 2518833
N=C(N)NCCC[C@@H]1NC(=O)[C@@H](CCCNC(=N)N)NC(=O)[C@H]2CCCN2C(=O)[C@@H](Cc2c[nH]cn2)NC(=O)[C@H](Cc2ccc(O)cc2)NC(=O)[C@H](CCCCCS)NC(=O)[C@H](CCc2ccccc2)NC(=O)[C@@H](CO)NC(=O)[C@H](CC(=O)O)NC1=O [des3.3.1, SHA-Tyr-dHis-dPro-dArg-Arg-Asp-dSer-C27] (HELM PEPTIDE1{[O=C([C@H](CCCCCS)N[*:1])[*:2]].Y.[dH].[dP].[dR].R.D.[dS].[O=C([C@H](CCc1ccccc1)N[*:1])[*:2]]}$PEPTIDE1,PEPTIDE1,1:R1-9:R2$$$V2.0) | HDAC6 activity raw data (signal) | 115704
CCCC[C@H]1NC(=O)[C@H](Cc2ccccc2)NC(=O)[C@H](CCCCCS)NC(=O)[C@@H](CCCNC(=N)N)NC(=O)[C@H](C)NC(=O)[C@@H](CO)NC(=O)[C@@H](C)NC(=O)[C@H](CCCCN)NC1=O [des4.3.1.3, SHA-Phe-dNle-Lys-dAla-dSer-Ala-dArg] (HELM PEPTIDE1{A.[dR].[O=C([C@H](CCCCCS)N[*:1])[*:2]].F.[CCCC[C@@H](N[*:1])C(=O)[*:2]].K.[dA].[dS]}$PEPTIDE1,PEPTIDE1,1:R1-8:R2$$$V2.0) | HDAC6 activity raw data (signal) | 1278425
NCCCC[C@@H]1NC(=O)[C@@H]2C[C@@H](O)CN2C(=O)[C@H](CC(N)=O)NC(=O)[C@H](CCCCCS)NC(=O)CNC(=O)[C@H](Cc2c[nH]c3ccccc23)NC(=O)[C@@H](CCCCN)NC(=O)[C@H](CCC(N)=O)NC1=O [des1.1.2, SHA-Asn-Hpr-Lys-Gln-dLys-Trp-Gly] (HELM PEPTIDE1{G.[O=C([C@H](CCCCCS)N[*:1])[*:2]].N.[Hyp].K.Q.[dK].W}$PEPTIDE1,PEPTIDE1,1:R1-8:R2$$$V2.0) | HDAC6 activity raw data (signal) | 551447
C[C@H](O)[C@H]1NC(=O)[C@H](Cc2c[nH]c3ccccc23)NC(=O)[C@H](CCCCCS)NC(=O)[C@H](CCCCN)NC(=O)[C@@H](CC(=O)O)NC(=O)[C@@H](CCCCN)NC(=O)[C@@H](CO)NC(=O)[C@H](CC(N)=O)NC(=O)[C@H](CC(=O)O)NC1=O [des2.1.0, SHA-Trp-dThr-Asp-Asn-dSer-dLys-dAsp-Lys] (HELM PEPTIDE1{D.N.[dS].[dK].[dD].K.[O=C([C@H](CCCCCS)N[*:1])[*:2]].W.[dT]}$PEPTIDE1,PEPTIDE1,1:R1-9:R2$$$V2.0) | HDAC6 activity raw data (signal) | 580209
